System: antibodies in sera from SARS patients (sera 1a, 1b, 2, 6, 37, 62, London, SARS-yellow, SARS-green)
Type: binding, human
Binding of serum 62 to linear peptides of protein X1 of SARS-CoV Urbani vs 0.6: at or above is Criterion met, below is Criterion not met.

LESTQITTDTGIENA	Criterion not met

Does the reported Binding of serum 62 to linear peptides of protein X1 of SARS-CoV Urbani for NLLLLFVTIYSHLLL fall at or above the 0.6 mark? Criterion not met

Now try ALYKGFQFICNLLLL . Criterion not met

ATKIIALNKRWQLAL ? Criterion met

Try this sequence next: FTEVYYQLESTQITT Criterion met

----------
System: antibodies in sera from SARS patients (sera 1a, 1b, 2, 6, 37, 62, London, SARS-yellow, SARS-green)
Format: binding, human
Mark Criterion not met for Binding of serum 1a to linear peptides of protein X2 values under 0.6, and Criterion met for everything at or above.

Known results for sequences:
TSLSLHKLLQTLVLK	Criterion met
HRMCKYTQSTALQEL	Criterion met
FMMSRRRLLACLCKH	Criterion met
ILRIGTQVLKTMSLY	Criterion met
TTSLSLHKLLQTLVL	Criterion not met

Is reported Binding of serum 1a to linear peptides of protein X2 greater than or equal to 0.6 here: QELLIQQWIQFMMSR Criterion met

Also need FTTSLSLHKLLQTLV , thanks. Criterion not met

Quick one: ITMTTVYHITVSQIQ Criterion met

Record: LLKVTAFQHQNSKKT Criterion not met

----------
Tested on: antibodies in sera from SARS patients (sera 1a, 1b, 2, 6, 37, 62, London, SARS-yellow, SARS-green)
Type: binding, human
Parameters: unit not given here
Experimental Readout: Binding of serum 37 to looped/cyclic peptides of protein N of SARS-CoV Urbani
Just the number, please.

ITFGGPTDSTDNNQN	0.6
SSRGNSPARMASGGG	0.4
QGNFGDQDLIRQGTD	0.6
KSAAEASKKPRQKRT	0.4

Bench note: what Binding of serum 37 to looped/cyclic peptides of protein N of SARS-CoV Urbani did SRQLQNSMSGASADS show? 0.4

Now consider SAPRITFGGPTDSTD . 0.5

Moving on to the next sequence: STPGSSRGNSPARMA 0.6

Note, next up: TEGALNTPKDHIGTR 0.5

// repeat for FGGPTDSTDNNQNGG and report 0.4

Also check EQTQGNFGDQDLIRQ 0.2

Likewise for QASSRSSSRSRGNSR ? 0.5

----------
Here the recorded Binding of serum 37 to looped/cyclic peptides of protein X2 of SARS-CoV Urbani is given for each entry.
Tested on: antibodies in sera from SARS patients (sera 1a, 1b, 2, 6, 37, 62, London, SARS-yellow, SARS-green)
Format: binding, human
Parameters: unit not given here
Number only, no unit.

ITMTTVYHITVSQIQ	0.4
CLCKHKKVSTNLCTH	0.4
SSLTSLLKTHRMCKY	0.3
KLLQTLVLKMLHSSS	0.4
SSSLTSLLKTHRMCK	0.2
TTSLSLHKLLQTLVL	0.5
HKLLQTLVLKMLHSS	0.5
LACLCKHKKVSTNLC	0.3
KTHRMCKYTQSTALQ	0.2
KVSTNLCTHSFRKKQ	0.4

Tell me the measured Binding of serum 37 to looped/cyclic peptides of protein X2 of SARS-CoV Urbani of SPKFTTSLSLHKLLQ , please. 0.3

Field entry: STNLCTHSFRKKQVR 0.5

One more sequence: RRRLLACLCKHKKVS 0.2

And then IQFMMSRRRLLACLC , what is it? 0.2

Thanks! And QWIQFMMSRRRLLAC ? 0.5

Same thing, different sequence: HRMCKYTQSTALQEL 0.5

Note, next up: ILRIGTQVLKTMSLY 0.5

Next record, please: RMCKYTQSTALQELL 0.4

----------
Test system: antibodies in sera from SARS patients (sera 1a, 1b, 2, 6, 37, 62, London, SARS-yellow, SARS-green)
Type: binding, human
Experimental Readout: Binding of serum 1a to looped/cyclic peptides of protein X4 of SARS-CoV Urbani
Lab note: write the figure by itself, no unit.

Worked cases, Binding of serum 1a to looped/cyclic peptides of protein X4 of SARS-CoV Urbani given:
RHTYQLRARSVSPKL	0.8
LRARSVSPKLFIRQE	0.8
ILFLTLIVFTSCELY	0.7
SPKLFIRQEEVQQEL	0.8
LTCTSTHFAFACADG	0.6
FTSCELYHYQECVRG	0.8

Can you look up the measured Binding of serum 1a to looped/cyclic peptides of protein X4 of SARS-CoV Urbani of CELYHYQECVRGTTV for me? 0.8

----------
System: recombinant human anti-SARS-CoV antibody 03-018
Format: binding
Design: unit not given here
Experimental Readout: Binding of antibody 03-018 to looped/cyclic peptides of the N protein of SARS-CoV Urbani
// response body must contain only the number

Illustrative cases are given below, each with its answer.
LIRQGTDYKHWPQIA	0.1
QIGYYRRATRRVRGG	0.2

Provide the documented Binding of antibody 03-018 to looped/cyclic peptides of the N protein of SARS-CoV Urbani with recombinant human anti-SARS-CoV antibody 03-018 as the system for RSRGNSRNSTPGSSR 0.2

Proceed to NNAATVLQLPQGTTL 0.3

Would you mind doing RNPNNNAATVLQLPQ as well? 0.2

Now the same for RRVRGGDGKMKELSP 0.2

Repeat for the following sequence: AQFAPSASAFFGMSR 0.3

SKKPRQKRTATKQYN ? 0.2

Check ASSRSSSRSRGNSRN too. 0.2

Moving on to GTWLTYHGAIKLDDK 0.2

Now the same for DSTDNNQNGGRNGAR 0.3

And for TLPKGFYAEGSRGGS ? 0.2

Do the same for RGQGVPINTNSGPDD please 0.2

One more sequence: LPQGTTLPKGFYAEG 0.3

Do the same for EPKKDKKKKTDEAQP please 0.2

Also AYKTFPPTEPKKDKK , if possible. 0.1

What about YYLGTGPEASLPYGA ? 0.2

// repeat for TEGALNTPKDHIGTR and report 0.3

----------
Documented Binding of serum 1b to looped/cyclic peptides of protein X1 of SARS-CoV Urbani across a set of sequences
Tested on: antibodies in sera from SARS patients (sera 1a, 1b, 2, 6, 37, 62, London, SARS-yellow, SARS-green)
Format: binding, human
Enter the number alone.

Below, each entry is followed by its recorded Binding of serum 1b to looped/cyclic peptides of protein X1 of SARS-CoV Urbani result.
FTEVYYQLESTQITT	0.5
TDTIVVTEGDGISTP	0.3
KDYVVVHGYFTEVYY	0.4

// next entry
For the sequence YFTEVYYQLESTQIT , what Binding of serum 1b to looped/cyclic peptides of protein X1 of SARS-CoV Urbani is on record? 0.5

----------
Test system: antibodies in sera from SARS patients (sera 1a, 1b, 2, 6, 37, 62, London, SARS-yellow, SARS-green)
Type: binding, human
Parameters: unit not given here
Quick list: Binding of serum SARS-green to looped/cyclic peptides of protein N of SARS-CoV Urbani per entry.
Give your answer as a number; write no unit.

TVTKKSAAEASKKPR	0.0
GLPNNTASWFTALTQ	0.6
TALTQHGKEELRFPR	0.7
NVILLNKHIDAYKTF	0.3
DYKHWPQIAQFAPSA	0.2
LNQLESKVSGKGQQQ	0.5

Query (sequence): KDKKKKTDEAQPLPQ ; field requested: Binding of serum SARS-green to looped/cyclic peptides of protein N of SARS-CoV Urbani 0.1

Now consider RRVRGGDGKMKELSP . 0.1

Please give the result for GGSQASSRSSSRSRG too. 0.0

----------
Tested on: control sera (pooled serum of ten healthy LUMC hospital workers; commercial negative donor pooled serum from the Dutch bloodbank)
Assay type: binding, human
Design: unit not given here
Experimental Readout: Binding of Control serum Blood-bank to linear peptides
Write no unit; give the number alone.

PSGTYEGNSPFHPLA	0.9
ATFFIFNKLVKDPPN	0.5
TRHTYQLRARSVSPK	0.9
ALYKGFQFICNLLLL	0.6

Read the next record carefully.
So what does the record say about Binding of Control serum Blood-bank to linear peptides for GQTVTKKSAAEASKK ? 0.7

----------
System: control sera (pooled serum of ten healthy LUMC hospital workers; commercial negative donor pooled serum from the Dutch bloodbank)
Type: binding, human
List of Control serum LUMC looped peptides values.
Form: value (number only, do not type unit).

AYKTFPPTEPKKDKK	0.1

// Control serum LUMC looped peptides lookup, key: LLPAADMDDFSRQLQ 0.4

Then PTVTLLPAADMDDFS ? 0.3

Another sequence: LPAADMDDFSRQLQN 0.4

What do you have for KQPTVTLLPAADMDD ? 0.3

Also need KHIDAYKTFPPTEPK , thanks. 0.3

Please do the same for YKTFPPTEPKKDKKK as well. 0.3

Please give the result for PQFKDNVILLNKHID too. 0.8

Try this sequence too: TVTLLPAADMDDFSR 0.3

Field entry: IKLDDKDPQFKDNVI 0.6

Please answer likewise for DMDDFSRQLQNSMSG 0.3

Another sequence to check: QLQNSMSGASADSTQ 0.4

Also need MDDFSRQLQNSMSGA , thanks. 0.5

Again, but for KKKKTDEAQPLPQRQ 0.4
